target: HLA-DR molecule encoded by the allele DRB1*1101 (human); test: competition ELISA vs biotinylated HA 306-318
Response field class: enum, chosen by comparing IC50 against low group = under 50 nM, middle group = from 50 nM up to 1000 nM, high group = 1000 nM and over

• LTFGWCYKLVPVEPDKVEEANKGENTSLLHPV (modifications not checked) [Nef10 peptide (positions 137-168 of the HIV-1 Nef protein, Bru strain), P03406 137-168] = low group
• SSVVGWPTVRERMRR (modifications not checked) [Nef1.2 peptide (positions 8-22 of the HIV-1 Nef protein, Bru strain), P03406 8-22] = high group
• LIHSQRRQDILDLWI (modifications not checked) [Nef6 peptide (positions 100-114 of the HIV-1 Nef protein, Bru strain), P03406 100-114] = high group
• LEKHGAITSSNTAATNAACAWLEAQEEEEVGFPVT (modifications not checked) [Nef3 peptide (positions 37-71 of the HIV-1 Nef protein, Bru strain), P03406 37-71] = high group

**Q:** Hi there! Could you help me figure out the category for REVLEWRFDSRLAFH (modifications not checked) [Nef13.1 peptide (positions 178-192 of the HIV-1 Nef protein, Bru strain), P03406 178-192] please?
**A:** low group

**Q:** Request: LAFHHVARELHPEYF (modifications not checked) [Nef13.5 peptide (positions 189-203 of the HIV-1 Nef protein, Bru strain), P03406 189-203]
**A:** low group

Data origin: patent US20040115622A1
